target: purified HHAT (Homo sapiens, UniProt Q5VTY9); construct: made in house; experiment: Acyl-cLIP assay, inhibition of purified HHAT; assay type: biochemical
Sequence (Q5VTY9 whole entry): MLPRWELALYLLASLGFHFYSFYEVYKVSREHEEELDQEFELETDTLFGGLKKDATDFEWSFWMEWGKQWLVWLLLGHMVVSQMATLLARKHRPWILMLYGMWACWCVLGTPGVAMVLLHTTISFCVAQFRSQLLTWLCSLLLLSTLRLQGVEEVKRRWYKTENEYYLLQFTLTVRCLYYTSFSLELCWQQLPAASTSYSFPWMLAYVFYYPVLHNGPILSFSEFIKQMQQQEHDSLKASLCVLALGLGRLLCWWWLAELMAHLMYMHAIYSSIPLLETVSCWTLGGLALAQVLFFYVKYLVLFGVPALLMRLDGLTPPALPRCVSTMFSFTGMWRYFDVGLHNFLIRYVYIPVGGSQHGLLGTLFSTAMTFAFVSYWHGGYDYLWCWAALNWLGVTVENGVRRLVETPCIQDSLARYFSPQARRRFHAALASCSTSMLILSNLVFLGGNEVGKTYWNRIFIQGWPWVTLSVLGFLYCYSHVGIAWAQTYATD
quantity: inhibition at 25 µM (%)

Example entries begin here.
{"compound": "C=CCNCC(=O)N1CCc2sccc2C1COc1ccc(Cl)cc1 (centres unmarked)", "quantity": "inhibition at 25 µM", "measured.value": 73}
{"compound": "CC(=O)N1CCc2sccc2C1c1ccccc1O (centres unmarked)", "quantity": "inhibition at 25 µM", "measured.value": 24}
{"compound": "CC(C)CNCC(=O)N1CCc2ccccc2C1c1ccccc1 (centres unmarked) [Compound 39]", "quantity": "inhibition at 25 µM", "measured.value": 81}
{"compound": "O=C([C@@H]1CCCN1)N1CCc2sccc2C1c1ccccc1 (mixture of isomers)", "quantity": "inhibition at 25 µM", "measured.value": 4}
{"compound": "C=CC(=O)N1CCc2sccc2C1c1cccc(C)c1 (centres unmarked)", "quantity": "inhibition at 25 µM", "measured.value": 51}

1 = CC(=O)N1CCc2sccc2C1c1cccc(C)n1 (centres unmarked)
2 = c1ccc(C2NCCc3sccc32)cc1 (centres unmarked)
Between 1 and 2 , which one shows the larger inhibition at 25 µM value? Kindly state the label of the option you pick.
1

###

experiment: Caco-2 permeability assay; assay type: in vitro ADME, human; details: human, Caco-2, pH 7.4, 10 µM, without Verapamil
quantity: Papp B→A at 2 h, 10 μM (×10⁻⁶ cm/s)

{"compound": "C=CCNCC(=O)N1CCc2sccc2C1COc1ccc(Cl)cc1 (stereo not drawn)", "quantity": "Papp B→A at 2 h, 10 μM", "value.unit": "×10⁻⁶ cm/s", "measured.value": 12.4}

a = CCC(C)CNCC(=O)N1CCc2sccc2C1c1cccc(C)c1 (stereo not drawn)
b = CCC(C)CNCC(=O)N1CCc2sccc2C1c1cccc(C)n1 (stereo not drawn)
Between a and b , which one shows the larger Papp B→A at 2 h, 10 μM value? Kindly state the label of the option you pick.
b
(b: 29.7 ×10⁻⁶ cm/s, a: 17.4 ×10⁻⁶ cm/s)

###

assay: MTS assay, cytotoxicity (72 h); assay type: cell-based; details: human, HEK293a SHH+ cells, 72 h; read-out: MTS Assay (HEK293a SHH+) CC50 (CI95)
quantity: CC50 at 72 h

Example entries begin here.
{"molecule": "CC(C)CNCC(=O)N1CCc2ccccc2C1c1ccccc1 (stereo in doubt) [Compound 43]", "measured.value": "> 50 µM"}
{"molecule": "C=CC(=O)N1CCCCC1c1ccccc1 (stereo not drawn) [Compound 48]", "measured.value": "> 100 µM"}

Okay, now this molecule:
I am curious: what CC50 at 72 h value has been reported for CCC(C)CNCC(=O)N1CCCCC1c1ccccn1 (stereo not drawn) [Compound 50] ?
> 100 µM

###

experiment: Microsomal incubations, human liver microsomes; assay type: in vitro ADME; conditions: 1 μM, 30 min
quantity: HLM % metabolized after 30 min (%)

P = C=CCNCC(=O)N1CCc2sccc2C1COc1ccc(Cl)cc1 (stereo not shown)
Q = Cc1cccc([C@H]2c3ccsc3CCN2C(=O)CNCC(C)C)n1
Between the entries labeled P and Q , whose measured HLM % metabolized after 30 min is lower? Kindly state the label of the option you pick.
Q

###

system: palmitoylation of SHH in HEK293a SHH+ cells; assay: Cell-based YnPal metabolic tagging assay; settings: HEK293-A; HEK293a SHH+ cells; read-out: YnPal tagging IC50 (CI95)
Below, each entry is listed with its recorded pIC50.
The value called pIC50 is obtained by taking minus log10 of the concentration in mol/L.

Example entries begin here.
{"molecule": "CCC(C)CNCC(=O)N1CCc2sccc2C1c1cccc(C)n1 (centres unmarked) [Compound 22]", "target.system": "palmitoylation of SHH in HEK293a SHH+ cells", "pIC50": 5.97}
{"molecule": "C=CCNCC(=O)N1CCc2sccc2C1COc1ccc(Cl)cc1 (centres unmarked) [Compound 2]", "target.system": "palmitoylation of SHH in HEK293a SHH+ cells", "pIC50": 5.63}
{"molecule": "Cc1cccc(C2c3ccsc3CCN2C(=O)CNCC(C)C)n1 (centres unmarked) [Compound 24]", "target.system": "palmitoylation of SHH in HEK293a SHH+ cells", "pIC50": 6.31}

Okay, now this molecule:
I am curious: what pIC50 value has been reported for CCC(C)CNCC(=O)N1CCc2sccc2C1c1cccc(C)c1 (centres unmarked) [Compound 17] ?
6.24

All figures here come from paper PMC10823475.
